Recorded ALP by entry
Organism: Rattus norvegicus
Method description: Open TG-GATES - Regimen: Daily Repeat
Type: toxicity, organism-based, Sprague-Dawley
Set-up: regimen Daily Repeat, gender Male, age 6 weeks
Cond: in vivo, po, 0 mg/kg, 72 h, tissue Plasma, route gavage, dose level Control, time 3 day
Number only, in IU/L; omit the unit.

CC(C)Cc1ccc(C(C)C(=O)O)cc1 (stereo not drawn) [IBUPROFEN] | 1697.6

Could you tell me which ALP is on file for CC[C@@H](CO)NCCN[C@@H](CC)CO [ETHAMBUTOL] ? 1450

Could you tell me which ALP is on file for CC(CCc1ccccc1)NCC(O)c1ccc(O)c(C(N)=O)c1 (stereo not drawn) [LABETALOL] ? 1730.4

Could you tell me which ALP is on file for CC(N)=O [ACETAMIDE] ? 1741.8

Could you tell me which ALP is on file for CCN(CC)N=O [N-NITROSODIETHYLAMINE] ? 962

---

Species on record: Rattus norvegicus
Method description: Open TG-GATES - Regimen: Single
Format: toxicity, organism-based, Sprague-Dawley
Set-up: regimen Single, gender Male, age 6 weeks
Cond: in vivo, po, 0 mg/kg, 9 h, tissue Plasma, route gavage, dose level Control
Parameter measured: BUN (mg/dL)
Number only, in mg/dL; omit the unit.

Some compounds with recorded BUN:
CCN(CC)N=O [N-NITROSODIETHYLAMINE] | 13.8
CC(CCc1ccccc1)NCC(O)c1ccc(O)c(C(N)=O)c1 (stereo unspecified) [LABETALOL] | 10.2
O=C(O)COc1nn(Cc2ccccc2)c2ccccc12 [BENDAZAC] | 10.8
CC[C@@H](CO)NCCN[C@@H](CC)CO [ETHAMBUTOL] | 10.6
CC(=O)N1CCN(c2ccc(OCC3COC(Cn4ccnc4)(c4ccc(Cl)cc4Cl)O3)cc2)CC1 (stereo unspecified) [KETOCONAZOLE] | 10.2

Could you now look at the following compound, please?
Could you tell me which BUN is on file for CC(=O)Nc1ccc2c(c1)Cc1ccccc1-2 [2-ACETYLAMINOFLUORENE] ? 11.2

---

Recorded MCH by entry
Organism: Rattus norvegicus
Method description: Open TG-GATES - Regimen: Daily Repeat
Format: toxicity, organism-based, Sprague-Dawley
Parameters: regimen Daily Repeat, gender Male, age 6 weeks
Cond: in vivo, po, 0 mg/kg, 72 h, tissue Blood, route gavage, dose level Control, time 3 day
Number only, in pg; omit the unit.

O=C(O)COc1nn(Cc2ccccc2)c2ccccc12 [BENDAZAC] | 21.4
CC(CCc1ccccc1)NCC(O)c1ccc(O)c(C(N)=O)c1 (stereo not drawn) [LABETALOL] | 21.3

Could you tell me which MCH is on file for CC(N)=O [ACETAMIDE] ? 20

Could you tell me which MCH is on file for CCN(CC)N=O [N-NITROSODIETHYLAMINE] ? 21.7

Could you tell me which MCH is on file for CC(=O)N1CCN(c2ccc(OCC3COC(Cn4ccnc4)(c4ccc(Cl)cc4Cl)O3)cc2)CC1 (stereo not drawn) [KETOCONAZOLE] ? 21.7

Could you tell me which MCH is on file for CC(=O)Nc1ccc2c(c1)Cc1ccccc1-2 [2-ACETYLAMINOFLUORENE] ? 21.5

Could you tell me which MCH is on file for CC(C)Cc1ccc(C(C)C(=O)O)cc1 (stereo not drawn) [IBUPROFEN] ? 22.3

Could you tell me which MCH is on file for CC[C@@H](CO)NCCN[C@@H](CC)CO [ETHAMBUTOL] ? 21.9
